The following compounds are shown together with reported ZR Ratio 48 hr values.
system: ZR-75-1 cells; assay: Caspase cascade activation (N-(Ac-DEVD)-N'-ethoxycarbonyl-R110 fluorogenic substrate) in ZR-75-1 cells; assay type: cell-based, Human; details: caspase activity: ratio of net RFU of test compound to control; ZR-75-1, 48 h incubation
Where a name gives a salt, the structure may show the parent alone.
measurement.name: ZR Ratio 48 hr

compound	measurement.name	reading
COc1cc(Nc2cc(C(F)(F)F)nc(-c3cccnc3)n2)c(OC)cc1Cl [Example 130, hydrochloride]	ZR Ratio 48 hr	9.7
Cc1nccc(-c2cccc(Nc3cc(C(F)(F)F)nc(-c4cccnc4)n3)c2)n1	ZR Ratio 48 hr	1.1
COc1cc(Nc2cc(C(F)(F)F)nc(-c3cnccn3)n2)cc(OC)c1	ZR Ratio 48 hr	11.5
Cc1cc(Nc2c(C)cccc2C)nc(-c2ccccn2)n1	ZR Ratio 48 hr	2.4
COc1ccc(Cl)c(Nc2cc(C(F)(F)F)nc(-c3cccnc3)n2)c1	ZR Ratio 48 hr	5.3
COc1cccc(Nc2cc(C)nc(-c3ccccn3)n2)c1OC	ZR Ratio 48 hr	3.5
COc1ccc(OC)c(CCNc2cc(C(F)(F)F)nc(-c3cccnc3)n2)c1	ZR Ratio 48 hr	1.4
COc1ccc(OC)c(Nc2cc(C(F)(F)F)nc(-c3ccncc3)n2)c1	ZR Ratio 48 hr	2.5
Cc1ccc(Cl)c(Nc2cc(C(F)(F)F)nc(-c3cccnc3)n2)c1	ZR Ratio 48 hr	15.8
COc1ccc(Oc2ccccc2)cc1Nc1cc(C(F)(F)F)nc(-c2cccnc2)n1	ZR Ratio 48 hr	6.7
O=S(=O)(c1ccccc1)c1cccc(Nc2cc(C(F)(F)F)nc(-c3cccnc3)n2)c1	ZR Ratio 48 hr	1.7
COc1ccc(OC)c(Nc2cc(C(F)(F)F)nc(-c3cccnc3)n2)c1	ZR Ratio 48 hr	12.4
COc1cccc(Nc2cc(N3CCOCC3)nc(-c3ccccc3)n2)c1	ZR Ratio 48 hr	1.4
Cn1cc(Br)c(-c2cccc(Nc3cc(C(F)(F)F)nc(-c4cccnc4)n3)c2)n1	ZR Ratio 48 hr	1.1
COc1cccc(N(C)c2cc(C(F)(F)F)nc(-c3ccccn3)n2)c1	ZR Ratio 48 hr	1.4
COc1ccc(Cl)c(Nc2cc(C(F)(F)F)nc(-c3ccccc3)n2)c1	ZR Ratio 48 hr	5.0
Cc1ccc(C)c(Nc2cc(C(F)(F)F)nc(-c3ccncc3)n2)c1 [Example 115, hydrochloride]	ZR Ratio 48 hr	11.6
COc1cccc(Nc2cc(C(F)(F)F)nc(-c3cccnc3)n2)c1	ZR Ratio 48 hr	8.9

---

tested on: T-47D cells; experiment: Caspase cascade activation (N-(Ac-DEVD)-N'-ethoxycarbonyl-R110 fluorogenic substrate) in T-47D cells; assay type: cell-based, Human; settings: caspase activity: ratio of net RFU of test compound to control, 48 h incubation
Where a name gives a salt, the structure may show the parent alone.
The following molecules are shown together with reported T47 Ratio 48 hr values.
measurement.name: T47 Ratio 48 hr

molecule	measurement.target	measurement.name	reading
COc1ccc(Cl)c(Nc2cc(C(F)(F)F)nc(-c3ccccc3)n2)c1	T-47D cells	T47 Ratio 48 hr	12.7
COc1ccc(OC)c(Nc2cc(C(F)(F)F)nc(-c3cccnc3)n2)c1	T-47D cells	T47 Ratio 48 hr	8.8
Cc1ccc(O)cc1Nc1cc(C(F)(F)F)nc(-c2ccncc2)n1	T-47D cells	T47 Ratio 48 hr	8.8
Cc1ccc(C)c(Nc2cc(C(F)(F)F)nc(-c3ccncc3)n2)c1 [Example 115, hydrochloride]	T-47D cells	T47 Ratio 48 hr	14.2
Cc1ccc(F)cc1Nc1cc(C(F)(F)F)nc(-c2cccnc2)n1	T-47D cells	T47 Ratio 48 hr	9.8

---

test system: ZR-75-1 cells; assay: Caspase cascade activation (N-(Ac-DEVD)-N'-ethoxycarbonyl-R110 fluorogenic substrate) in ZR-75-1 cells; assay type: cell-based, Human; details: caspase activity: ratio of net RFU of test compound to control; ZR-75-1, 48 h incubation
The following molecules are shown together with reported ZR Ratio 48 hr values.
measurement.name: ZR Ratio 48 hr

molecule	measurement.target	reading
COc1cc(Nc2cc(C(F)(F)F)nc(-c3ccccn3)n2)c(OC)cc1Cl.Cl [Example 150]	ZR-75-1 cells	9.7
COc1ccc(C)c(Nc2cc(C(F)(F)F)nc(-c3cnccn3)n2)c1 [Example 80]	ZR-75-1 cells	5.9
Cl.Oc1cccc(Nc2cc(C(F)(F)F)nc(-c3cccnc3)n2)c1 [Example 97]	ZR-75-1 cells	6.7
Cc1cc(Nc2cc(C(F)(F)F)nc(-c3cnccn3)n2)c(C)cc1O.Cl [Example 148]	ZR-75-1 cells	8.4
Cc1cc(Nc2cc(C(F)(F)F)nc(-c3cccnc3)n2)c(C)cc1O [Example 201]	ZR-75-1 cells	4.8
COCc1cc(Nc2cccc(OC)c2)nc(-c2csc(C)n2)n1 [Example 44]	ZR-75-1 cells	1.9

---

The following compounds are shown together with reported ZR Ratio 48 hr values.
system: ZR-75-1 cells; experiment: Caspase cascade activation (N-(Ac-DEVD)-N'-ethoxycarbonyl-R110 fluorogenic substrate) in ZR-75-1 cells; format: cell-based, Human; conditions: caspase activity: ratio of net RFU of test compound to control; ZR-75-1, 48 h incubation
measurement.name: ZR Ratio 48 hr

smiles.record	reading
COc1cccc(Nc2cc(C(F)(F)F)nc(-c3ccccc3)n2)c1	2.6
COc1ccc(C)c(Nc2cc(C(F)(F)F)nc(-c3cccnc3)n2)c1	5.9
CCOc1ccc(OCC)c(Nc2cc(C(F)(F)F)nc(-c3cccnc3)n2)c1	7.4
COc1cccc(Nc2cc(-c3ccccn3)nc(-c3ccccn3)n2)c1	3.6
COCc1cc(Nc2cccc(OC)c2)nc(-c2cccc(C)c2)n1	1.1
COc1ccc(C)cc1Nc1cc(C(F)(F)F)nc(-c2cccnc2)n1	16.9
COc1ccc(C)c(Nc2cc(C)nc(-c3ccccn3)n2)c1	6.6
CCOc1cccc(Nc2cc(C(F)(F)F)nc(-c3ccccn3)n2)c1	12.4
Cc1ccc(C)c(Nc2cc(C(F)(F)F)nc(-c3cccnc3)n2)c1	17.9
COCc1cc(Nc2cc(OC)ccc2OC)nc(-c2csc(C)n2)n1	17.3
Cc1ccc(C#N)c(Nc2cc(C(F)(F)F)nc(-c3cccnc3)n2)c1	4.5
COc1cccc(Nc2cc(C(F)(F)F)nc(-c3ccccn3)n2)c1	3.6
Cc1ccc(N)cc1Nc1cc(C(F)(F)F)nc(-c2cccnc2)n1.Cl	8.8
O=C(Nc1ccccc1)c1cccc(Nc2cc(C(F)(F)F)nc(-c3cccnc3)n2)c1	0.9
Fc1c(F)c(F)c(Oc2cccc(Nc3cc(C(F)(F)F)nc(-c4cccnc4)n3)c2)c(F)c1F	1.3
Cc1cc2cc(Nc3cc(C(F)(F)F)nc(-c4cccnc4)n3)ccc2[nH]1	9.9
O=[N+]([O-])c1cccc(-c2cccc(Nc3cc(C(F)(F)F)nc(-c4cccnc4)n3)c2)c1	1.2
Cc1cc(Nc2cc(C(F)(F)F)nc(-c3cccnc3)n2)cc(C(F)(F)F)c1	1.5

---

tested on: ZR-75-1 cells; experiment: Caspase cascade activation (N-(Ac-DEVD)-N'-ethoxycarbonyl-R110 fluorogenic substrate) in ZR-75-1 cells; format: cell-based, Human; settings: caspase activity: ratio of net RFU of test compound to control; ZR-75-1, 48 h incubation
The following molecules are shown together with reported ZR Ratio 48 hr values.

molecule	ZR Ratio 48 hr
COc1cccc(Nc2nc(-c3ccc(C(F)(F)F)cn3)nc(C)c2Cl)c1 [Example 15]	2.7
COc1ccc(C)cc1Nc1cc(C(F)(F)F)nc(-c2ccncc2)n1 [Example 116]	8.8
Cc1cc(Nc2cc(C(F)(F)F)nc(-c3ccccn3)n2)c(C)cc1O.Cl [Example 147]	8.4
COc1ccc(Cl)c(Nc2cc(-c3ccccn3)nc(-c3ccccn3)n2)c1.Cl [Example 113]	4.1
FC(F)(F)c1cc(Nc2cccc(Oc3ccccc3)c2)nc(-c2cccnc2)n1 [Example 67]	1.2

---

system: ZR-75-1 cells; test: Caspase cascade activation (N-(Ac-DEVD)-N'-ethoxycarbonyl-R110 fluorogenic substrate) in ZR-75-1 cells; assay type: cell-based, Human; conditions: caspase activity: ratio of net RFU of test compound to control; ZR-75-1, 48 h incubation
ZR Ratio 48 hr of 9 or higher: Criterion met. Under 9: Criterion not met.

smiles.record	class.name
COc1ccc(Br)cc1Nc1cc(C(F)(F)F)nc(-c2cccnc2)n1	Criterion not met
COc1ccc(Cl)c(Nc2cc(C)nc(N3CCOCC3)n2)c1	Criterion not met
COc1ccc(C)c(Nc2cc(C(F)(F)F)nc(-c3ccncc3)n2)c1	Criterion not met
COc1cc(Nc2cc(C(F)(F)F)nc(-c3cc(Cl)nc(Cl)c3)n2)cc(OC)c1	Criterion not met
Cc1cc(Nc2cc(C(F)(F)F)nc(-c3ccncc3)n2)c(C)cc1O	Criterion met
COc1ccc(OC)c(Nc2cc(-c3ccccn3)nc(-c3ccccn3)n2)c1	Criterion met
COc1ccc(Cl)c(Nc2cc(C(F)(F)F)nc(-c3ccc(C(F)(F)F)nc3)n2)c1	Criterion not met
COc1cc(Nc2cc(C(F)(F)F)nc(-c3cccnc3)n2)cc(OC)c1.Cl	Criterion met
FC(F)(F)c1cc(Nc2cccc(-c3ccccc3)c2)nc(-c2cccnc2)n1	Criterion not met
Cl.FC(F)(F)Oc1cccc(Nc2cc(C(F)(F)F)nc(-c3ccccn3)n2)c1	Criterion not met
COc1cccc(CNc2cc(C(F)(F)F)nc(-c3cccnc3)n2)c1	Criterion not met
Cc1ccc(C)c(Nc2cc(-c3ccccn3)nc(-c3ccccn3)n2)c1	Criterion not met
Oc1ccc(Cl)c(Nc2cc(C(F)(F)F)nc(-c3ccncc3)n2)c1	Criterion not met
COc1ccc(OC)c(Nc2cc(C)nc(-c3ccccn3)n2)c1	Criterion met
COc1ccc(OC)c(Nc2cc(C(F)(F)F)nc(-c3ccccn3)n2)c1	Criterion met
COc1cc(C)c(Nc2cc(C(F)(F)F)nc(-c3ccccn3)n2)cc1OC.Cl	Criterion not met
COc1cccc(Nc2cc(C(F)(F)F)nc(-c3ccncc3)n2)c1	Criterion not met
COc1ccc(Cl)cc1Nc1cc(C(F)(F)F)nc(-c2ccncc2)n1	Criterion not met
